FYI, the data here is from the supplement of paper PMC7877785.

# assay-procedure: self-splicing fitness, log relative to wild type (ln ratio); higher = more splicing; Tetrahymena group I intron in knt gene, E. coli kanamycin selection, DiMSum; sequences stand for … in CUCUCU…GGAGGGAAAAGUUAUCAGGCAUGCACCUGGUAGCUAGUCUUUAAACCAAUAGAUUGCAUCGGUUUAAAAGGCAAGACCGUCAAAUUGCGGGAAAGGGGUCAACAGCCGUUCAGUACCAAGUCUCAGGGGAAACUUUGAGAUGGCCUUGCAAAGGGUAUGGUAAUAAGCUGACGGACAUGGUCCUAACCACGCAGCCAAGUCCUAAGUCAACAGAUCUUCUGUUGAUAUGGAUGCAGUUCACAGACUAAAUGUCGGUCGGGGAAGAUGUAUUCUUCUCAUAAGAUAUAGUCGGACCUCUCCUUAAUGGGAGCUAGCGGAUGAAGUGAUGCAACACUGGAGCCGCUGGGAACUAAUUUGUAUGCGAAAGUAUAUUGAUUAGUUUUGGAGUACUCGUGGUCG;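 also: selection with 25 µg/mL kanamycin versus none on LB agar overnight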
# condition-parameters: 37 °C

>  <ordered-residues>
ACACAGCAAUAUUACGAUAU

>  <self-splicing fitness (ln)>
-1.62

$$$$
>  <ordered-residues>
AACAAGCAAUAUUACGUAGG

>  <self-splicing fitness (ln)>
-1.57

$$$$
>  <ordered-residues>
AGAGAGCAAUAUUACGGGGU

>  <self-splicing fitness (ln)>
-2.65

$$$$
>  <ordered-residues>
UAUGAGCAAUAUUACGGCGG

>  <self-splicing fitness (ln)>
-1.72

$$$$
>  <ordered-residues>
GUGAAGCAAUAUUACGAUAA

>  <self-splicing fitness (ln)>
0.6

$$$$
>  <ordered-residues>
CAUCAGCAAUAUUACGUAUG

>  <self-splicing fitness (ln)>
-1.43

$$$$
>  <ordered-residues>
ACAGAGCAAUAUUACGAGUG

>  <self-splicing fitness (ln)>
-3.43

$$$$
>  <ordered-residues>
GGCUAGCAAUAUUACGUUAC

>  <self-splicing fitness (ln)>
-0.888

$$$$
>  <ordered-residues>
AGUAAGCAAUAUUACGCACU

>  <self-splicing fitness (ln)>
-1.79

$$$$
>  <ordered-residues>
CUGCAGCAAUAUUACGUCUA

>  <self-splicing fitness (ln)>
-0.709

$$$$
>  <ordered-residues>
UCCAAGCAAUAUUACGCUGA

>  <self-splicing fitness (ln)>
-1.07

$$$$
>  <ordered-residues>
AGGUAGCAAUAUUACGCUCC

>  <self-splicing fitness (ln)>
-2.43

$$$$
>  <ordered-residues>
AUCCAGCAAUAUUACGGUUA

>  <self-splicing fitness (ln)>
0.0679

$$$$
>  <ordered-residues>
AGAAAGCAAUAUUACGGGAA

>  <self-splicing fitness (ln)>
-1.73

$$$$
>  <ordered-residues>
CGGUAGCAAUAUUACGAAAU

>  <self-splicing fitness (ln)>
-3.07

$$$$
>  <ordered-residues>
ACUCAGCAAUAUUACGGUUU

>  <self-splicing fitness (ln)>
-0.291

$$$$

====

# assay-procedure: self-splicing fitness, log relative to wild type (ln ratio); higher = more splicing; Tetrahymena group I intron in knt gene, E. coli kanamycin selection, DiMSum; sequences stand for … in CUCUCU…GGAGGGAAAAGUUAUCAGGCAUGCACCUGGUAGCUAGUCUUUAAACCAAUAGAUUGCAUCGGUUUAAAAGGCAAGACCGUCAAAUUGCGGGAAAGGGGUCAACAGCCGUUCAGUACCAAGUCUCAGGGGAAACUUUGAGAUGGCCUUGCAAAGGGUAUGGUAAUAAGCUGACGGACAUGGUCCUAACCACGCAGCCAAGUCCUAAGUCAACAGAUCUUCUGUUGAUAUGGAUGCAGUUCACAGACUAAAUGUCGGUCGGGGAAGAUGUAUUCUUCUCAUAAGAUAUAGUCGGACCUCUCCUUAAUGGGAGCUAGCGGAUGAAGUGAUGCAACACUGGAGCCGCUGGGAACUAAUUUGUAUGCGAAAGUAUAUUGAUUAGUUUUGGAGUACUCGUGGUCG
# condition-parameters: 30 °C
As shown below, each of these sequences has a reported self-splicing fitness (ln) value.

>  <ordered-residues>
ACGUAGCAAUAUUACGCAUG

>  <self-splicing fitness (ln)>
-2.97

$$$$
>  <ordered-residues>
UUGAAGCAAUAUUACGGAUC

>  <self-splicing fitness (ln)>
-0.951

$$$$
>  <ordered-residues>
GUCAAGCAAUAUUACGGACA

>  <self-splicing fitness (ln)>
-3.06

$$$$
>  <ordered-residues>
CGGAAGCAAUAUUACGGCUC

>  <self-splicing fitness (ln)>
-4.04

$$$$
>  <ordered-residues>
GUUCAGCAAUAUUACGUACU

>  <self-splicing fitness (ln)>
-1.24

$$$$
>  <ordered-residues>
GCCGAGCAAUAUUACGUAGG

>  <self-splicing fitness (ln)>
-3.39

$$$$
>  <ordered-residues>
AGUCAGCAAUAUUACGAUUC

>  <self-splicing fitness (ln)>
-3.27

$$$$
>  <ordered-residues>
GGUGAGCAAUAUUACGCAUU

>  <self-splicing fitness (ln)>
-1.28

$$$$
>  <ordered-residues>
AGUCAGCAAUAUUACGCCCG

>  <self-splicing fitness (ln)>
-0.925

$$$$
>  <ordered-residues>
CACUAGCAAUAUUACGAGCG

>  <self-splicing fitness (ln)>
-0.458

$$$$
>  <ordered-residues>
CGAAAGCAAUAUUACGUACA

>  <self-splicing fitness (ln)>
-1.25

$$$$
>  <ordered-residues>
UGACAGCAAUAUUACGCGGU

>  <self-splicing fitness (ln)>
-3.56

$$$$
>  <ordered-residues>
UCGAAGCAAUAUUACGCCCA

>  <self-splicing fitness (ln)>
-1.84

$$$$
>  <ordered-residues>
CCGUAGCAAUAUUACGUAGC

>  <self-splicing fitness (ln)>
-3.91

$$$$
>  <ordered-residues>
CCUUAGCAAUAUUACGCACA

>  <self-splicing fitness (ln)>
-1.93

$$$$
>  <ordered-residues>
GGACAGCAAUAUUACGCACC

>  <self-splicing fitness (ln)>
-2.25

$$$$
